- Experimental System: GST-Aq-NF-kB (Amphimedon queenslandica, UniProt A9Y5G7 2-389)
- Sequence: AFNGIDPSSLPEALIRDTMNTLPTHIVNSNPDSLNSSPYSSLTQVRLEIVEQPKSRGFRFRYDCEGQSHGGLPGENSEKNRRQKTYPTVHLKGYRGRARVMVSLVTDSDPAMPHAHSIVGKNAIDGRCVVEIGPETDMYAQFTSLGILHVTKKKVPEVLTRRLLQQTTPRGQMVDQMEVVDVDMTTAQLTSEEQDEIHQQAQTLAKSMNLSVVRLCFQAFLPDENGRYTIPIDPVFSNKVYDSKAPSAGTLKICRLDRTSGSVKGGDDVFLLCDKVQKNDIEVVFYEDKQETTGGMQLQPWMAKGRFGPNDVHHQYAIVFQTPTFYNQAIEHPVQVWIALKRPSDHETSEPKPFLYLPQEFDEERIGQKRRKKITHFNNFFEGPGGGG
- Protocol Summary: protein-binding microarray (PBM); PBM: ~300 nM protein, 6 mM HEPES pH 7.8, 80 mM KCl, 0.5 mM EDTA, 0.5 mM EGTA, 6% glycerol, 35 ng/ul poly-dIdC, 1% milk, 1 h, room temperature; Ap Aiptasia and Nv Nematostella (sea anemones) / Co Capsaspora / Aq Amphimedon (sponge) / Dm Drosophila / Hu human; RHD is the Rel homology domain; high values mean tight binding
- Applied Conditions: dsDNA, one strand shown
I'd appreciate it if you could supply binding signal values for the items below.
Numbers only, in z-score.

- Sequence Input: "CCGATTAACATCACGGGATTGCCTGATGTTAATCGGGTCTTGATTCGCTTGACGCTGCTG"
  Result Units: "z-score"
  binding signal: 2.41
- Sequence Input: "CCGATTAACATCAGGGGGGGAGATGATGTTAATCGGGTCTTGATTCGCTTGACGCTGCTG"
  Result Units: "z-score"
  binding signal: 4.59
- Sequence Input: "CCGATTAACATCAGGGGGTGTACTGATGTTAATCGGGTCTTGATTCGCTTGACGCTGCTG"
  Result Units: "z-score"
  binding signal: 4.78

Batch request: binding signal per item, same order as input.
1. CCGATTAACATCACGGGATTTCGTGATGTTAATCGGGTCTTGATTCGCTTGACGCTGCTG
2. CCGATTAACATCAGGGAAAGTAATGATGTTAATCGGGTCTTGATTCGCTTGACGCTGCTG
3. CCGATTAACATCAATAATTTCCCTGATGTTAATCGGGTCTTGATTCGCTTGACGCTGCTG
4. CCGATTAACATCAGGATCTCCCCTGATGTTAATCGGGTCTTGATTCGCTTGACGCTGCTG
5. CCGATTAACATCAGAATTCCCACTGATGTTAATCGGGTCTTGATTCGCTTGACGCTGCTG

1: 1.91; 2: 4.25; 3: 5.17; 4: 6.38; 5: 3.19

Batch request: binding signal per item, same order as input.
1. CCGATTAACATCAGGGGGTTGGATGATGTTAATCGGGTCTTGATTCGCTTGACGCTGCTG
2. CCGATTAACATCAAAAATTCCTATGATGTTAATCGGGTCTTGATTCGCTTGACGCTGCTG
3. CCGATTAACATCAGAAAATACCCTGATGTTAATCGGGTCTTGATTCGCTTGACGCTGCTG

1. 3.38
2. 1.2
3. 7.37

Batch request: binding signal per item, same order as input.
1. CCGATTAACATCAGAGATTTCCCTGATGTTAATCGGGTCTTGATTCGCTTGACGCTGCTG
2. CCGATTAACATCAGAAGTTTCCCTGATGTTAATCGGGTCTTGATTCGCTTGACGCTGCTG
3. CCGATTAACATCAGGATTTGCCCTGATGTTAATCGGGTCTTGATTCGCTTGACGCTGCTG
4. CCGATTAACATCACGTTTCCCCCTGATGTTAATCGGGTCTTGATTCGCTTGACGCTGCTG
5. CCGATTAACATCAGGGGAAGTAATGATGTTAATCGGGTCTTGATTCGCTTGACGCTGCTG

5.48
6.09
3.5
5.17
4.63

Taken from paper PMC5700166.
